// reported kon for each item listed
Molecular target: T1, human IL-17F homodimer, bacterially expressed construct (residues 39-163 with GSEGE linker) (human, UniProt Q96PD4 39-163)
T1 construct: also called IL-17F dimer
T1 chain: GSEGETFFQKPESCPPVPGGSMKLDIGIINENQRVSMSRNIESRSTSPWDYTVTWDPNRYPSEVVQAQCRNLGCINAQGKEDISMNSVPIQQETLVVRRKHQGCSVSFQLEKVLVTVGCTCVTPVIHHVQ
Assay: BLI, biotinylated VHH immobilized on streptavidin sensors, IL-17 as analyte (10, 20, 40 nM), mass transport fit; apparent value, avidity possible;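 also: wavelength shift (nm) signal, 800 s association then 800 s dissociation, reference from parallel sensors without VHH, avidity from immobilized VHH may lower apparent off-rates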
Lab book: enter the figure in M⁻¹ s⁻¹, no units written.

| Binder | Quantity unit | kon |
| --- | --- | --- |
| Re42H11 with C-terminal Avi-Biotin-tag, biotinylated (VHH, biotin on the C-terminal Avi-tag (BirA), not shown: C-terminal Avi-Biotin-tag) VHH: QVQLVESGGGLVQAGGSLRLSCAASGLTASSYAMGWFRQAPGKEREFVAAISWISGGTKYADSVKGRFTMSRDNAKKQVYLEMNSLKPEDTAVYYCNDMPYGLDTRMDEYAYWGQGTQVTVSS | M⁻¹ s⁻¹ | 270000 |
| Bm18B05 with C-terminal Avi-Biotin-tag, biotinylated (VHH, biotin on the C-terminal Avi-tag (BirA), not shown: C-terminal Avi-Biotin-tag) VHH: QVQLVESGGGLVQPGGSLRLSCAVSGRTFSSYAMGWFRRPPGKEREFVAAISWSGGDTKYADFVTDRFTISRDDAKSTVYLQMNSLKPEDTAVYYCNDMPYGLDTRMDEYEYWGQGTQVTVSS | M⁻¹ s⁻¹ | 86000 |
| Re42B03 with C-terminal Avi-Biotin-tag, biotinylated (VHH, biotin on the C-terminal Avi-tag (BirA), not shown: C-terminal Avi-Biotin-tag) VHH: QVQLVESGGGLVQAGGSLRLSCAASGLTGSSYAMGWFRQAPGKEREFVAAISWISGGTKYTDSVKDRFTMSRDYAKKQVYLEMNSLKPEDTAVYYCNDMPYGLDTRMDEYVYWGQGTQVTVSS | M⁻¹ s⁻¹ | 260000 |
| Bm18F11 with C-terminal Avi-Biotin-tag, biotinylated (VHH, biotin on the C-terminal Avi-tag (BirA), not shown: C-terminal Avi-Biotin-tag) VHH: QVQLVESGGDLVQAGGSLRLSCAASGLTGSSYAMGWFRQAPGKEREFVAAISWISGDTKYTDSVKGRFTMSRDNAKKQVYLEMNSLKPEDTAVYYCNDMPYGLDTRMDEYVYWGQGTQVTVSS | M⁻¹ s⁻¹ | 150000 |

Could you now look at the following binder, please?
Req: Which kon is listed for Re42B04 with C-terminal Avi-Biotin-tag, biotinylated (VHH, biotin on the C-terminal Avi-tag (BirA), not shown: C-terminal Avi-Biotin-tag) VHH: QVQLVESGGGLVQVGGSLRLSCEVSGLPVSSYAMGWFRQAPEKEREFVAAISWIGGDSRYAHFVKGRFTISRDNAKNTVHLQMDSLKPEDTAVYYCNDMPYGLDTRMDEYEYWGLGTQVTVSS ?
Resp: 140000
